# ASSAY_TEXT: recombinant barcode read abundance after kanamycin selection (control-corrected) (log10(CPM+1)); higher = more efficient recombination; sequences stand for … in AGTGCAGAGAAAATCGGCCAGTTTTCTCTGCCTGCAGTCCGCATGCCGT…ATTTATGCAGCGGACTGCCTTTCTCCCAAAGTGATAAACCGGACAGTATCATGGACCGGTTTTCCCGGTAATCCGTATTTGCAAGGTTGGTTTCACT; site = the 11-nt target
READOUT_NAME: recombinant barcode read abundance (log10)

- ORDERED_RESIDUES: "TGTATTCCTTGGGTTCTAACCTGTTGCCTAT [TGTATTCCTAG_LTGcore_CT_RTGcore_AT] (site TGTATTCCTAG) (LTG core: CT, RTG core: AT)"
  RESULT: 0.192
- ORDERED_RESIDUES: "TCGCGACGCTGGGTTCTAACCTGTTGCCGGC [TCGCGACCTCG_LTGcore_GC_RTGcore_GC] (site TCGCGACCTCG) (LTG core: GC, RTG core: GC)"
  RESULT: 0.0326
- ORDERED_RESIDUES: "AGGCGGTCCTGGGTTCTAACCTGTTGCTTGG [AGGCGGTCTAA_LTGcore_CC_RTGcore_CC] (site AGGCGGTCTAA) (LTG core: CC, RTG core: CC)"
  RESULT: 0.334
- ORDERED_RESIDUES: "TTATAAACTTGGGTTCTAACCTGTTGCCTAG [TTATAAACTAG_LTGcore_CT_RTGcore_CT] (site TTATAAACTAG) (LTG core: CT, RTG core: CT)"
  RESULT: 0.894
- ORDERED_RESIDUES: "CGGTCCCCCTGGGTTCTAACCTGTTGCCAGG [CGGTCCCCTTG_LTGcore_CC_RTGcore_CC] (site CGGTCCCCTTG) (LTG core: CC, RTG core: CC)"
  RESULT: 0.0887
- ORDERED_RESIDUES: "ACGGGACCTTGGGTTCTAACCTGTTGCAGTA [ACGGGACCTCT_LTGcore_CT_RTGcore_TA] (site ACGGGACCTCT) (LTG core: CT, RTG core: TA)"
  RESULT: 0.818
- ORDERED_RESIDUES: "ACGGGACCTTGGGTTCTAACCTGTTGCAGAG [ACGGGACCTCT_LTGcore_CT_RTGcore_CT] (site ACGGGACCTCT) (LTG core: CT, RTG core: CT)"
  RESULT: 2.63
- ORDERED_RESIDUES: "AGGCGGTTCTGGGTTCTAACCTGTTGCTTAG [AGGCGGTCTAA_LTGcore_TC_RTGcore_CT] (site AGGCGGTCTAA) (LTG core: TC, RTG core: CT)"
  RESULT: 0
- ORDERED_RESIDUES: "TAAGAATAGTGGGTTCTAACCTGTTGCCTAG [TAAGAATCTAG_LTGcore_AG_RTGcore_CT] (site TAAGAATCTAG) (LTG core: AG, RTG core: CT)"
  RESULT: 0.079
- ORDERED_RESIDUES: "ACGGGACACTGGGTTCTAACCTGTTGCAGGT [ACGGGACCTCT_LTGcore_AC_RTGcore_AC] (site ACGGGACCTCT) (LTG core: AC, RTG core: AC)"
  RESULT: 0.0869
- ORDERED_RESIDUES: "AGTCTTAACTGGGTTCTAACCTGTTGCCAAG [AGTCTTACTTG_LTGcore_AC_RTGcore_CT] (site AGTCTTACTTG) (LTG core: AC, RTG core: CT)"
  RESULT: 0.111
- ORDERED_RESIDUES: "GGGCGGACATGGGTTCTAACCTGTTGCGGTG [GGGCGGACTCC_LTGcore_CA_RTGcore_CA] (site GGGCGGACTCC) (LTG core: CA, RTG core: CA)"
  RESULT: 0.732
- ORDERED_RESIDUES: "GAGGCCTGTTGGGTTCTAACCTGTTGCCAAG [GAGGCCTCTTG_LTGcore_GT_RTGcore_CT] (site GAGGCCTCTTG) (LTG core: GT, RTG core: CT)"
  RESULT: 0.586
- ORDERED_RESIDUES: "TAAGAATCTTGGGTTCTAACCTGTTGCCTGC [TAAGAATCTAG_LTGcore_CT_RTGcore_GC] (site TAAGAATCTAG) (LTG core: CT, RTG core: GC)"
  RESULT: 0.359
- ORDERED_RESIDUES: "GAGTCCTCTTGGGTTCTAACCTGTTGCCTGG [GAGTCCTCTAG_LTGcore_CT_RTGcore_CC] (site GAGTCCTCTAG) (LTG core: CT, RTG core: CC)"
  RESULT: 1.39
- ORDERED_RESIDUES: "AAACAGTCGTGGGTTCTAACCTGTTGCCTAG [AAACAGTCTAG_LTGcore_CG_RTGcore_CT] (site AAACAGTCTAG) (LTG core: CG, RTG core: CT)"
  RESULT: 1.17
- ORDERED_RESIDUES: "AAACATGCCTGGGTTCTAACCTGTTGCCTAG [AAACATGCTAG_LTGcore_CC_RTGcore_CT] (site AAACATGCTAG) (LTG core: CC, RTG core: CT)"
  RESULT: 0.55
- ORDERED_RESIDUES: "GAGCCCAGTTGGGTTCTAACCTGTTGCCTAC [GAGCCCACTAG_LTGcore_GT_RTGcore_GT] (site GAGCCCACTAG) (LTG core: GT, RTG core: GT)"
  RESULT: 0.0734
- ORDERED_RESIDUES: "CGAGCCCCTTGGGTTCTAACCTGTTGCTGAA [CGAGCCCCTCA_LTGcore_CT_RTGcore_TT] (site CGAGCCCCTCA) (LTG core: CT, RTG core: TT)"
  RESULT: 0.691
- ORDERED_RESIDUES: "CGAGCCCCTTGGGTTCTAACCTGTTGCTGGA [CGAGCCCCTCA_LTGcore_CT_RTGcore_TC] (site CGAGCCCCTCA) (LTG core: CT, RTG core: TC)"
  RESULT: 0.994
- ORDERED_RESIDUES: "AAACATGGTTGGGTTCTAACCTGTTGCCTAC [AAACATGCTAG_LTGcore_GT_RTGcore_GT] (site AAACATGCTAG) (LTG core: GT, RTG core: GT)"
  RESULT: 0.108
- ORDERED_RESIDUES: "GAGTCCAGATGGGTTCTAACCTGTTGCGTTC [GAGTCCACTAC_LTGcore_GA_RTGcore_GA] (site GAGTCCACTAC) (LTG core: GA, RTG core: GA)"
  RESULT: 0.157

---

# ASSAY_TEXT: recombinant UMI read abundance after kanamycin selection (control-corrected) (log10(CPM+1)); higher = more efficient recombination; extreme values may be limits of the assay; sequences stand for … in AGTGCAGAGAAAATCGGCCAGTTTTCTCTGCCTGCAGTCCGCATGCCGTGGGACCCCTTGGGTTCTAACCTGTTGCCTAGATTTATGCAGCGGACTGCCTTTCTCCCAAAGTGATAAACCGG…AGGTTGGTTTCACT; site = the 11-nt donor

- ORDERED_RESIDUES: "GCAGTAGCATGGACCGGTTTTCCCGGTAATCCGTATTTGCC (site GCAGTAGCTGG)"
  recombinant UMI read abundance (log10): 0.831
- ORDERED_RESIDUES: "TGAACATCATGGACCGGTTTTCCCGGTAATCCGTATTTGGC (site TGAACATCTGC)"
  recombinant UMI read abundance (log10): 1.37
- ORDERED_RESIDUES: "TAATACTCATGGACCGGTTTTCCCGGTAATCCGTATTTGCA (site TGATACTCTTG)"
  recombinant UMI read abundance (log10): 1.6
- ORDERED_RESIDUES: "ACCACGCCATGGACCGGTTTTCCCGGTAATCCGTATTTGTA (site ACCACGCCTTA)"
  recombinant UMI read abundance (log10): 0.0245
- ORDERED_RESIDUES: "GCGCCGACATGGACCGGTTTTCCCGGTAATCCGTATTTGAC (site GCGCCGACTGT)"
  recombinant UMI read abundance (log10): 2.07
- ORDERED_RESIDUES: "AGGTAGACATGGACCGGTTTTCCCGGTAATCCGTATTTGCC (site AGGAAGACTTG)"
  recombinant UMI read abundance (log10): 0
- ORDERED_RESIDUES: "TGGCTGGCATGGACCGGTTTTCCCGGTAATCCGTATTTGGC (site TGGCGGGCTGC)"
  recombinant UMI read abundance (log10): 0
- ORDERED_RESIDUES: "CAGTGGACATGGACCGGTTTTCCCGGTAATCCGTATTTGGG (site CAGTCGACTCC)"
  recombinant UMI read abundance (log10): 0.0117
- ORDERED_RESIDUES: "TGGCCGGCATGGACCGGTTTTCCCGGTAATCCGTATTTGTC (site TGGCCGGCTGC)"
  recombinant UMI read abundance (log10): 0
